test system: MS2 coat protein; assay: apparent KD of MS2 coat protein; designed switch direction (-1 OFF switch, 1 ON switch): -1; higher = weaker reporter binding; conditions: input ligand: FMN 200 uM
Mark not met for apparent KD of MS2 coat protein values under 40 nM, and met for everything at or above.

query-sequence | system-under-test | class-assignment
AGAAACUCAAGAGGAUAUCACAUGAGGAUCACCCAUGUAUAGCGCGCUAUGCUAGUCCUCGUAUUUGAGAAGGUUUGAUAAAUG [Mat - Exclusion NG 2 - Mod of JL - D78] (Eterna round: R96, puzzle: Exclusion NG 2) | MS2 coat protein | not met

Request: Identify whether the reported apparent KD of MS2 coat protein of the following sequence is 40 nM or greater: AUGUAACAUGAGGAUCACCCAUGUGAGGAUAUGCGAAUGAAUGAAUGAAUGAAUGUUAGCAGAAGGCACAAGUA [Default title] (Eterna round: R97, puzzle: Exclusion 1)
Response: met

Request: Identify whether the reported apparent KD of MS2 coat protein of the following sequence is 40 nM or greater: CAGUACUGAGGAUAUACAUGAGGAUCACCCAUGUGGGAGAUACUAGUGAGGUCGAUUAGUAGAAGGCAGUACUG [Mat X3R4 m21] (Eterna round: R97, puzzle: Exclusion 3)
Response: met
